Record form. Attribute: ELISA (OD450 nm). Fill in for each entry.
- TEST SYSTEM: T1, Recombinant hFc fusion protein control (NC-Fc)
- T1 construct: negative control antigen of the screens; also called NC-hFc
- ASSAY TEXT: ELISA, hybridoma supernatant
# number only, unit OD450 dropped from output

# input binder: hybridoma antibody 105C10F1 (mAb004) (antibody, IgG2b, V domains shown, murine hybridoma antibody, IgG2b,κ; re-named CP03; also called CP03) VH: EVKLLQSGGGLVQPGGSLKLSCAASGIDFSRYWMSWVRRAPGKGLEWIGEINPDSSTINYAPSLKDKFIISRDAAKNTLYLQMSKVRSEDTALYYCATLYYDYDGDYAMDYWGQGTSVTVSS VL: DIVMTPSQKFMSTSVGDRVSVTCKASQNVGTNVAWYQQKPGQSPKALIYSASYRYSGVPDRFTGSGSGTDFTLTISNVQSEDLAEYFCQHYNSYPFTFGSGTKLEIK ; wanted: its ELISA (OD450 nm)
0.1

# input binder: hybridoma antibody 6G10-1D7 (mAb001) (antibody, IgG1, V domains shown, tested as supernatant and purified; also called CP01) VH: EVQLQQSGPELVKPGASMKISCKASDYSFTDYIMTWVKQSHGKNLEWIGLINPYNGGTTYNQKFKDKATFTVDKSSTTAYMDLLSLTSEDSAVYYCARRGITTDYYTMDYWGQGTSVTVSS VL: DIVMTQSQRFMSTSVGDRVSITCKASQSVGTAVAWYQQTPGQFPKLLIYSTSNRYTGVPDRFTGSGSGTDFTLTISNMQSEDLADYFCQQYSTYPLTFGSGTKLELK ; wanted: its ELISA (OD450 nm)
0.08

# input binder: hybridoma antibody 102A12H6 (mAb003) (antibody, IgG1, V domains shown, murine hybridoma antibody, IgG1,κ) VH: EVQLQQSGPELVKPGASVKISCKASGYSFTGYYMNWVKQSPEKSLEWIGEINSSTGGTTYNQKFKAKATMTVDKSSNTAYMELKSLTSEDSAVYYCRYYGSDWHFDVWGTGTTVTVSS VL: QIVLTQSPALMSASPGEKVTMTCSASSSVSYMYWYQQKPRSSPKPWIYLTSSLASGVPARFSGSGSGTSYSLTISTMEAEDAATYYCQQWSSDPLTFGAGTKLELK ; wanted: its ELISA (OD450 nm)
0.12

# input binder: hybridoma antibody 152D8E8 (mAb013) (antibody, IgG1, V domains shown, murine, IgG1,κ; re-named CP09; also called CP09) VH: QVTLKESGPGILQSSQTLSLTCSFSGFSLNTSGMGVNWIRQSSGKDLEWLAHIYWNDDKRYNPSLKSRLTISKDTSRNQVFLRITSVDATDTATYFCCRSRLSFDYWGHGTTLTVSS VL: DIKMTQSPSSMYVSLGERVTITCKASQDINRNLSWFQQKPGKSPKTLIYRANRLVDGVPLRFSGSGSGQDYSLTISSLEYEDMGIYYCLQYDEFPRTFGGGTKLEIK ; wanted: its ELISA (OD450 nm)
0.23

src = patent US20230181640A1
